The following molecules are listed with their measured PHD Inhibition (pIC50) values.
# target.of.assay: PHD2 enzyme (residues 181-417) (Homo sapiens (Human), UniProt Q9GZT9)
# Sequence (Q9GZT9 181-417): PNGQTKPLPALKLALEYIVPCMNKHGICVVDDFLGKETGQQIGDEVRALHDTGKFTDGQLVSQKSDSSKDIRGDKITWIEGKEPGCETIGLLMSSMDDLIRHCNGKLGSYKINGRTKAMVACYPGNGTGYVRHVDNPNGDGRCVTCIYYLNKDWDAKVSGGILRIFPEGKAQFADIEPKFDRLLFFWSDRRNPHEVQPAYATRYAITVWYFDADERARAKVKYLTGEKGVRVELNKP
# experimental.protocol: Inhibition of PHD enzyme (LC/MS peptide hydroxylation assay)
# Type: biochemical
# test.conditions: PHD2 (residues 181-417) 5 nM, 60 min pre-incubation; -log(IC50), IC50 molar
Keep the answer to the number alone.

Look over these answered cases.
{"molecule": "C[C@H](NC(=O)c1ccc(-n2ncc(-c3ccc(C#N)cc3)c2O)nc1)C1CCOCC1", "PHD Inhibition (pIC50)": 7.21}
{"molecule": "COc1cc(-c2cnn(-c3ccc(C(=O)NC4(C)CC4)cn3)c2O)ccn1", "PHD Inhibition (pIC50)": 6.92}

Entry under review: `COC[C@H]1CCC[C@H]1NC(=O)c1ccc(-n2ncc(-c3ccc(C#N)cc3C)c2O)nc1` . Reported PHD Inhibition (pIC50)? 8.1

And `O=C(NCc1ccccc1)c1ccc(-n2ncc(-c3ccncc3)c2O)nc1` ? 7.56

And `Cc1cc(C#N)ccc1-c1cnn(-c2ccc(C(=O)NC3CCC3)cn2)c1O` ? 7.21

And `CCOCCNC(=O)c1ccc(-n2ncc(-c3ccc(C#N)cc3)c2O)nc1` ? 7.32

And `Cc1cc(C#N)ccc1-c1cnn(-c2ccc(C(=O)N3CCC[C@@H](N4CCCC4)C3)cn2)c1O` ? 7.91

And Cc1cc(C#N)ccc1-c1cnn(-c2ccc(C(=O)N3CCC(CN(C)C)C3)cn2)c1O (centres unmarked) ? 7.77

###

# target.of.assay: PHD2 enzyme (residues 181-417) (Homo sapiens (Human), UniProt Q9GZT9)
# experimental.protocol: Inhibition of PHD enzyme (LC/MS peptide hydroxylation assay)
# Assay type: biochemical
# test.conditions: PHD2 (residues 181-417) 5 nM, 60 min pre-incubation; -log(IC50), IC50 molar
The following molecules are listed with their measured PHD Inhibition (pIC50) values.

Look over these answered cases.
{"molecule": "Cc1cc(C#N)ccc1-c1cnn(-c2ccc(C(=O)N3CCC[C@H]3CN3CCCC3)cn2)c1O", "PHD Inhibition (pIC50)": 7.72}
{"molecule": "Cc1cc(C#N)ccc1-c1cnn(-c2ccc(C(=O)NC(C)C)cn2)c1O", "PHD Inhibition (pIC50)": 7.04}
{"molecule": "COCCCNC(=O)c1ccc(-n2ncc(-c3ccc(C#N)cc3F)c2O)nc1", "PHD Inhibition (pIC50)": 7.45}
{"molecule": "CN1CCC(CNC(=O)c2ccc(-n3ncc(-c4ccc(C#N)cc4)c3O)nc2)C1 (centres unmarked)", "PHD Inhibition (pIC50)": 6.87}
{"molecule": "CO[C@H]1CC[C@H](NC(=O)c2ccc(-n3ncc(-c4ccc(C#N)cc4)c3O)nc2)CC1 [Example 228]", "PHD Inhibition (pIC50)": 7.48}
{"molecule": "N#Cc1ccc(-c2cnn(-c3ccc(C(=O)NCC4CCOCC4)cn3)c2O)c(Cl)c1", "PHD Inhibition (pIC50)": 6.83}

Entry under review: `COc1cc(-c2cnn(-c3ccc(C(=O)NCCCN4CCOCC4)cn3)c2O)ccn1` . Reported PHD Inhibition (pIC50)? 7.8

And `COCCCNC(=O)c1ccc(-n2ncc(-c3ccnc(OC)c3)c2O)nc1` ? 7.1

###

# target.of.assay: PHD2 enzyme (residues 181-417) (Homo sapiens (Human), UniProt Q9GZT9)
# experimental.protocol: Inhibition of PHD enzyme (LC/MS peptide hydroxylation assay)
# Assay type: biochemical
# test.conditions: PHD2 (residues 181-417) 5 nM, 60 min pre-incubation; -log(IC50), IC50 molar
The following molecules are listed with their measured PHD Inhibition (pIC50) values.
Keep the answer to the number alone.

Look over these answered cases.
{"molecule": "Cc1cc(C#N)ccc1-c1cnn(-c2ccc(C(=O)N3CCN(C)CC(F)(F)C3)cn2)c1O", "PHD Inhibition (pIC50)": 8.46}
{"molecule": "COCC1CCN(C(=O)c2ccc(-n3ncc(-c4ccc(C#N)cc4C)c3O)nc2)C1 (centres unmarked)", "PHD Inhibition (pIC50)": 8.3}
{"molecule": "Cc1cc(-n2ncc(-c3ccc(C#N)cc3)c2O)ncc1C(=O)N[C@H]1CC[C@@H](O)CC1", "PHD Inhibition (pIC50)": 7.05}

Entry under review: `COCC(C)(C)NC(=O)c1ccc(-n2ncc(-c3ccc(C#N)cc3)c2O)nc1` . Reported PHD Inhibition (pIC50)? 7.09

And `Cc1cc(-c2cnn(-c3ccc(C(=O)NCC4CCOCC4)cn3)c2O)cc(C)n1` ? 5.83

And `COCCCN(C)C(=O)c1ccc(-n2ncc(-c3ccc(C#N)cc3)c2O)nc1` ? 7.12

###

# target.of.assay: PHD2 enzyme (residues 181-417) (Homo sapiens (Human), UniProt Q9GZT9)
# experimental.protocol: Inhibition of PHD enzyme (LC/MS peptide hydroxylation assay)
# Type: biochemical
# test.conditions: PHD2 (residues 181-417) 5 nM, 60 min pre-incubation; -log(IC50), IC50 molar
Class Condition met: PHD Inhibition (pIC50) at least 8. Class Condition not met: PHD Inhibition (pIC50) below 8.

In plain terms: is recorded PHD Inhibition (pIC50) at least 8 for CCN1CCN(C(=O)c2ccc(-n3ncc(-c4ccc(C#N)cc4C)c3O)nc2)C[C@@H]1C [Example 370] ? Condition met

And COCCCNC(=O)c1ccc(-n2ncc(-c3ccc(C#N)c(C)c3C)c2O)nc1 [Example 409] ? Condition met

And CC1(C)CC1NC(=O)c1ccc(-n2ncc(-c3ccc(C#N)cc3)c2O)nc1 (stereo not drawn) [Example 54] ? Condition not met

###

The following molecules are listed with their measured PHD Inhibition (pIC50) values.
# target.of.assay: PHD2 enzyme (residues 181-417) (Homo sapiens (Human), UniProt Q9GZT9)
# experimental.protocol: Inhibition of PHD enzyme (LC/MS peptide hydroxylation assay)
# Format: biochemical
# test.conditions: PHD2 (residues 181-417) 5 nM, 60 min pre-incubation; -log(IC50), IC50 molar
Keep the answer to the number alone.

{"molecule": "N#Cc1ccc(-c2cnn(-c3ccc(C(=O)NC4CCC(F)(F)CC4)cn3)c2O)cc1", "value.reported": 6.91}
{"molecule": "COCC1(CNC(=O)c2ccc(-n3ncc(-c4ccc(C#N)cc4C)c3O)nc2)CCCC1", "value.reported": 7.9}
{"molecule": "COC(C)CCNC(=O)c1ccc(-n2ncc(-c3ccc(C#N)cc3C)c2O)nc1 (centres unmarked)", "value.reported": 8.2}
{"molecule": "COCC1(CNC(=O)c2ccc(-n3ncc(-c4ccc(C#N)cc4)c3O)nc2)CC1", "value.reported": 7.12}
{"molecule": "COCC[C@H](C)NC(=O)c1ccc(-n2ncc(-c3ccc(C#N)cc3)c2O)nc1", "value.reported": 8.75}

Entry under review: `Cc1cc(C#N)ccc1-c1cnn(-c2ccc(C(=O)N(C)CCCN3CCCCC3)cn2)c1O` . Reported PHD Inhibition (pIC50)? 7.88

And CCC(C)NC(=O)c1ccc(-n2ncc(-c3ccc(C#N)cc3)c2O)nc1 (centres unmarked) ? 7.23

And `N#Cc1ccc(-c2cnn(-c3ccc(C(=O)NC4CCN(CCO)CC4)cn3)c2O)cc1` ? 6.94

And `Cc1c(-c2cnn(-c3ccc(C(=O)N4CCN(C(C)C)[C@H](C)C4)cn3)c2O)ccc(C#N)c1F` ? 8.36

###

The following molecules are listed with their measured PHD Inhibition (pIC50) values.
# target.of.assay: PHD2 enzyme (residues 181-417) (Homo sapiens (Human), UniProt Q9GZT9)
# experimental.protocol: Inhibition of PHD enzyme (LC/MS peptide hydroxylation assay)
# Assay type: biochemical
# test.conditions: PHD2 (residues 181-417) 5 nM, 60 min pre-incubation; -log(IC50), IC50 molar
Keep the answer to the number alone.

{"structure.smiles": "COC1CCN(C(=O)c2ccc(-n3ncc(-c4ccc(C#N)c(F)c4C)c3O)nc2)CC1", "target.of.assay": "PHD2 enzyme (residues 181-417) (Homo sapiens (Human), UniProt Q9GZT9)", "value.reported": 8.31}
{"structure.smiles": "C[C@H]1CC[C@H](NC(=O)c2ccc(-n3ncc(-c4ccc(C#N)cc4)c3O)nc2)CC1", "target.of.assay": "PHD2 enzyme (residues 181-417) (Homo sapiens (Human), UniProt Q9GZT9)", "value.reported": 8.1}
{"structure.smiles": "CCN1CCN(C(=O)c2ccc(-n3ncc(-c4ccc(C#N)c(C)c4C)c3O)nc2)CC1", "target.of.assay": "PHD2 enzyme (residues 181-417) (Homo sapiens (Human), UniProt Q9GZT9)", "value.reported": 7.97}

Entry under review: `COc1cc(C#N)ccc1-c1cnn(-c2ccc(C(=O)NCc3ccccc3)cn2)c1O` . Reported PHD Inhibition (pIC50)? 7.01

###

The following molecules are listed with their measured PHD Inhibition (pIC50) values.
# target.of.assay: PHD2 enzyme (residues 181-417) (Homo sapiens (Human))
# experimental.protocol: Inhibition of PHD enzyme (LC/MS peptide hydroxylation assay)
# Assay type: biochemical
# test.conditions: PHD2 (residues 181-417) 5 nM, 60 min pre-incubation; -log(IC50), IC50 molar
Keep the answer to the number alone.

Look over these answered cases.
{"molecule": "COc1cc(-c2cnn(-c3ccc(C(=O)NC4CCN(C)CC4)cn3)c2O)ccn1 [Example 33]", "PHD Inhibition (pIC50)": 7.4}
{"molecule": "Cc1cc(C#N)ccc1-c1cnn(-c2ccc(C(=O)NC3CCOCC3)cn2)c1O [Example 59]", "PHD Inhibition (pIC50)": 7.33}
{"molecule": "Cc1cc(C#N)ccc1-c1cnn(-c2ccc(C(=O)N[C@H]3CCOC3)cn2)c1O [Example 120]", "PHD Inhibition (pIC50)": 7.2}
{"molecule": "COCCC1(NC(=O)c2ccc(-n3ncc(-c4ccc(C#N)cc4C)c3O)nc2)CCCC1 [Example 356]", "PHD Inhibition (pIC50)": 8.16}
{"molecule": "CC1CC(CNC(=O)c2ccc(-n3ncc(-c4ccc(C#N)cc4)c3O)nc2)C1 (stereo not drawn) [Example 257]", "PHD Inhibition (pIC50)": 7.24}
{"molecule": "Cc1cc(C#N)ccc1-c1cnn(-c2ccc(C(=O)N3CCCC(N4CCCCC4)C3)cn2)c1O (stereo not drawn) [Example 314]", "PHD Inhibition (pIC50)": 7.90}
{"molecule": "Cc1cc(C#N)ccc1-c1cnn(-c2ccc(C(=O)N3CC[C@@H](N(C)C)C3)cn2)c1O [Example 413]", "PHD Inhibition (pIC50)": 8.10}
{"molecule": "Cc1cc(C#N)c(F)cc1-c1cnn(-c2ccc(C(=O)N3CCOCC3)cn2)c1O [Example 398]", "PHD Inhibition (pIC50)": 8.65}

Entry under review: N#Cc1ccc(-c2cnn(-c3ccc(C(=O)N[C@H]4CC[C@H](O)CC4)cn3)c2O)cc1 [Example 165] . Reported PHD Inhibition (pIC50)? 7.68

And Cc1cc(C#N)ccc1-c1cnn(-c2ccc(C(=O)N3CCN(C)C(C)(C)C3)cn2)c1O [Example 377] ? 8.44

And CC[C@H](C)NC(=O)c1ccc(-n2ncc(-c3ccc(C#N)cc3C)c2O)nc1 [Example 122] ? 7.06

And Cc1cc(-c2cnn(-c3ccc(C(=O)NCC4CCOCC4)cn3)c2O)ccn1 [Example 223] ? 5.43

And Cc1cc(C#N)ccc1-c1cnn(-c2ccc(C(=O)NC(CO)C3CCOC3)cn2)c1O (stereo not drawn) [Example 71] ? 7.24

And Cc1c(-c2cnn(-c3ccc(C(=O)N4CCCC4)cn3)c2O)ccc(C#N)c1F [Example 325] ? 8.44

And CCN(C(=O)c1ccc(-n2ncc(-c3ccc(C#N)cc3C)c2O)nc1)C1CCN(C)CC1 [Example 429] ? 7.95

And Cc1c(-c2cnn(-c3ccc(C(=O)N4CCCN(C5CC5)CC4)cn3)c2O)ccc(C#N)c1F [Example 323] ? 8.33
